# experimental.system: SARS-HCoV antigen(s) of unknown identity (purified whole virus, infected Vero cell lysate or infected Vero cells)
# test.description: ELISA, native gradient purified virus coated at 32 ng/well
Let's look at some binders and their measured ELISA OD 405 nm, Viral Lysate (native).

binder | unit.tag | ELISA OD 405 nm, Viral Lysate (native)
F26G3 (antibody, V domains shown) VH: EVRLQQSGPELVKPGASVKISCKTSGYTFTEYTMHWVKQSHGKNLEWIGGINPNNGGTTYNQKFKGKATLTVDKSSNTAYMELRSLTSEDSAVYYCSRGDYGTSYGYFDVWGAGTTVTVSS VL: DILMTQSPTSFAVSLGQRATISCRTSQSVSTSSYSYMHWYQQKPGQPPKLLIKYASNLESGVPARFSGSGSGSDFTLNIHPVEEGDTATYYCQHSWEIPCAFGGGTKLEIKR | OD 405 nm | 1.25
F26G7 (antibody, V domains shown) VH: VELLESGTVLARPGASVKMSCEASGYTFTTYWMHWIKQRPGQGLEWIGAIYPGNSDTTYNQKFKGKAKLTAVTSTSTAYMELSSLTNEDSAVYYCTREGIPQLLRTMDYWGQGTSVTVSS VL: ELVMTQSPSSLSASLGERVSLTCRASQEISGYLSWLQQKPDGTIKRLIYAASTLDSGVPKRFSGSRSGSDYSLTISSLESEDFADYYCLQYISYPWTFGGGTKLEIKR | OD 405 nm | 1.92
F26G10 (antibody, V domains shown) VH: EVQLEESGTVLARPGASVKMSCKASGYSFTSYWMHWVKQRPGQGLDWIGAIYPENSDTSYNQKFKGKAKLTAVTSASTAYMEHSSLTNEDSAVYYCTRSVYYGYGYFDVWGAGTTVTVSS VL: DILMTQSHKFMSTSVGDRVSITCKASQDVSTAVAWYQQKPGQSPKLLIYWASTRHTGVPDRFTGSGSGTDYTLTISSVQAEDLALYYCQQHYSTPYTFGGGTKLEIKR | OD 405 nm | 1.26
F26G9 (antibody, V domains shown) VH: VQLLESGTVLARPGASVKMSCKASGYSFTSYWMHWVKQRPGQGLEWIGAIYPGNSDTSYNQKFKGKAKLTAVTSASTAYMELSSLTNEDSAVYYCTRSVYYGYGYFDVWGAGTTVTVSS VL: DILMTQSHKCMSTSVGDRVSITCKASQDVSTAVVWYQQKPGQFPKLLIYWASTRHTGVPDRFTGSGSGTDYTLTISSVQAEDLALYYCQQHYTTPYTFGGGTKLEIKR | OD 405 nm | 1.34
